Assay: soluble on expression in E. coli; label from the status in PepcDB or PDB records
valueKind: soluble on expression in E. coli

{"constructSequence": "MSLFIRDNHLHTHHSYDSDANFTDYLTHFDGEIVTTEHYDLSNPYTKQDDVPDYESYSHEVEKLNLKYGNRIKRGIEIGYYQPRESDILDFLDGKDYDLKLLSVHHNGVNDYLDDEVAEMDKANIIQEYLDKLEYAVGRVDADVLAHFDYGFRLFDVTVDELKAYENQLKRIFKKMIANDLAFELNSKSMYLYHHEGLYRYVLALVKDLGCRKYSIGSDGHKLEHFRLNFDKIQELLREFEITEDMEGHHHHHH", "testResult": "not soluble"}
{"constructSequence": "MGSDKIHHHHHHMLRLSRELEVGEATVKRWLAGKGLTIDRLERLAGLCGMVLGDLVREAEEAPGVLAHELTLAQERALSSNIFLSFLFMTILNGIQPDETAADFSVPPREMEAALTRLERLALIDRLRSGRVRPLVDRNMVFRKLPLRNLFETHMKRVFFELDYGAPETIYTSEVVKLSVAGAAQLAELLERFRGEVQSLADRDAEKANKDRDWFGVLCVMRPLEMDPIRNAWWELS", "testResult": "not soluble"}
